# TARGET_UNDER_TEST: GCase (Homo sapiens)
# Construct: endogenous in cells
# Sequence (P04062 40-536): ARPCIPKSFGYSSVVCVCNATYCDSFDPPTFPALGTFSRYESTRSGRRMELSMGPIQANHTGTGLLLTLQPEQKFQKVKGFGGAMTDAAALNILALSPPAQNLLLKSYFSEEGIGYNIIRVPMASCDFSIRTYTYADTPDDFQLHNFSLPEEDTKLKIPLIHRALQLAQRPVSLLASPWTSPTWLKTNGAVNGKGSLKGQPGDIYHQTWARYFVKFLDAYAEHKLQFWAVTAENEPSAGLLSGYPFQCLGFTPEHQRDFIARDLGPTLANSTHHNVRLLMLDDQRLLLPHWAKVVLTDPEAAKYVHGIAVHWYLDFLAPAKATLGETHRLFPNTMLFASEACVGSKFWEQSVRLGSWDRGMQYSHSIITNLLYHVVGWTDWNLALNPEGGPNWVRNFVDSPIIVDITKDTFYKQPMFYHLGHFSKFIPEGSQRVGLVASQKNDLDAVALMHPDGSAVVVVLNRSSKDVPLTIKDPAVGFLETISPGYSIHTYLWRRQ
# ASSAY_INFO: activation of GCase in a live cell PFB assay in HELA cells

| COMPOUND | TARGET_UNDER_TEST | EC50 |
| --- | --- | --- |
| COc1ccc(OCC2CCN(C(=O)NCCc3cn[nH]c3)CC2)cc1 | GCase (Homo sapiens) | 50 to 100 µM |
| O=C(c1ccc2cc[nH]c2c1)N1CCC(Oc2ncccc2C(F)(F)F)CC1 | GCase (Homo sapiens) | 10 to 50 µM |
| O=C(N1CCCC(COc2ccccc2)C1)C1(c2cnc(-c3ccccc3)s2)CCOCC1 (stereo not drawn) | GCase (Homo sapiens) | < 10 µM |
| CC1CC(COc2cccnc2C(F)(F)F)CN(C(=O)c2ccc3cc[nH]c3c2)C1 (single isomer, unassigned) [Compound 252b] | GCase (Homo sapiens) | < 10 µM |
| CCc1nc2ccccc2n1CC(=O)N1CCCC(COc2ccccc2)C1 (stereo not drawn) | GCase (Homo sapiens) | 10 to 50 µM |
| COc1ccc(CCCC(=O)N2CCCC(COc3ccccc3)C2)cc1 (stereo not drawn) | GCase (Homo sapiens) | 10 to 50 µM |
| COc1ccc(OCC2CCN(C(=O)c3ccc(CN4CCCC4)o3)CC2)cc1 | GCase (Homo sapiens) | > 100 µM |
| O=C(Cc1cc(Cl)cs1)N1CCCC(COc2ccccc2)C1 (stereo not drawn) | GCase (Homo sapiens) | 10 to 50 µM |
| CC(C)(C)CC(=O)N1CCC(COc2cccc(C(F)(F)F)n2)CC1 | GCase (Homo sapiens) | 10 to 50 µM |

---

The entries below come with measured EC50 values attached.
# TARGET_UNDER_TEST: GCase (Homo sapiens, UniProt P04062)
# Construct: endogenous in cells
# ASSAY_INFO: activation of GCase in a live cell PFB assay in HELA cells

| COMPOUND | EC50 |
| --- | --- |
| FC(F)Cn1ncc2ncc(N3CC4CC4(COc4cc(C(F)(F)F)ccn4)C3)nc21 (centres unmarked) [Compound 285] | 10 to 50 µM |
| FC(F)Cn1ncc2ncc(N3C[C@@H]4[C@@H](COc5ccc(C(F)(F)F)nc5)[C@@H]4C3)nc21 [Compound 63] | 10 to 50 µM |
| Cc1nc(-n2cccc2)sc1C(=O)N1CCCC(COc2ccccc2)C1 (centres unmarked) [Compound 163] | 10 to 50 µM |
| CCC(C)(C)C(=O)N1CCC(COc2cccc(C(F)(F)F)n2)CC1 [Compound 350] | 50 to 100 µM |
| C[C@@H]1CC[C@H](COc2ccc(C(F)(F)F)cn2)CN1c1cnc2cnn(CC(F)F)c2n1 [Compound 275] | > 100 µM |
| COc1cccn(CC(=O)N2CCC(OCc3ccccc3)CC2)c1=O [Compound 447] | > 100 µM |
| O=C(c1cnn(-c2ccc(Cl)cc2)n1)N1CCCC(COc2ccccc2)C1 (centres unmarked) [Compound 147] | 10 to 50 µM |
| COc1ccc(OCC2CCN(c3ncnc4cc[nH]c34)CC2)cc1 [Compound 427] | 10 to 50 µM |

---

// reported EC50 for each item listed
# TARGET_UNDER_TEST: GCase (Homo sapiens, UniProt P04062)
# Construct: endogenous in cells; host or cells: HeLa cells
# ASSAY_INFO: activation of GCase in a live cell PFB assay in HELA cells
# Format: cell-based

| MOLECULE | EC50 |
| --- | --- |
| COc1ccc2c(c1)CCCC2CC(=O)N1CCCC(COc2ccccc2)C1 (centres unmarked) | 10 to 50 µM |
| FC(F)Cn1ncc2ncc(N3CCC(COc4cc(C(F)(F)F)ccn4)CC3)nc21 | 10 to 50 µM |
| O=C(Cc1ccnn(-c2ccccc2)c1=O)N1CCCC(COc2ccccc2)C1 (centres unmarked) | > 100 µM |
| C[C@H]1CC[C@H](COc2cccnc2C(F)(F)F)CN1c1cnc2cnn(CC(F)F)c2n1 | > 100 µM |
| C[C@@H]1CC[C@@H](COc2cccnc2C(F)(F)F)CN1c1cnc2cnn(CC(F)F)c2n1 | < 10 µM |
| COc1ccc(OCC2CCN(C(=O)CC3CCOC3)CC2)cc1 (centres unmarked) | 50 to 100 µM |
| COCCn1ncc2ncc(N3CC(COc4cccnc4C(F)(F)F)CCC3C)nc21 (centres unmarked) | < 10 µM |
| C[C@@H]1C[C@H](COc2cccnc2C(F)(F)F)CN(c2cnc3cnn(CC45CC(C4)C5)c3n2)C1 | < 10 µM |
| FC(F)Cn1ncc2ncc(N3CCC(OC4CN(c5cccnc5C(F)(F)F)C4)CC3)nc21 | < 10 µM |
| C[C@H](Oc1ccccc1C(F)(F)F)[C@@H]1CCCN(c2cnc3cnn(CC(F)F)c3n2)C1 (racemic) [Compound 5c] | < 10 µM |
| FC(F)Cn1ncc2ncc(N3CCC(F)(F)C(COc4cccc(C(F)(F)F)n4)C3)nc21 (centres unmarked) | 10 to 50 µM |
| Cc1cnc2c(n1)c(C(=O)N1CCCC(COc3ccccc3C)C1)c(-c1ccccc1)n2C (centres unmarked) | 10 to 50 µM |
| O=C(C(c1ccccc1)c1ccccc1)N1CCC(Oc2ccc(C(F)(F)F)cn2)CC1 | 10 to 50 µM |
| COCCNc1nc2cc(C(=O)N3CCC(O)(CO)CC3)ccc2n1C | 10 to 50 µM |
| FC(F)(F)c1ncccc1OC[C@@H]1[C@H]2CN(c3cncc(-c4nncs4)n3)C[C@@H]12 | 10 to 50 µM |
| COc1ccc(OCC2CCN(C(=O)c3cnc(O)cn3)CC2)cc1 | > 100 µM |
| Cc1ccccc1OCC1CCCN(C(=O)c2cnc3c(cc(-c4ccccc4)n3C)n2)C1 (centres unmarked) | 10 to 50 µM |

---

Below, each entry is listed alongside its reported pEC50.
# TARGET_UNDER_TEST: GCase (Homo sapiens, UniProt P04062)
# Construct: endogenous in cells
# Sequence (P04062 40-536): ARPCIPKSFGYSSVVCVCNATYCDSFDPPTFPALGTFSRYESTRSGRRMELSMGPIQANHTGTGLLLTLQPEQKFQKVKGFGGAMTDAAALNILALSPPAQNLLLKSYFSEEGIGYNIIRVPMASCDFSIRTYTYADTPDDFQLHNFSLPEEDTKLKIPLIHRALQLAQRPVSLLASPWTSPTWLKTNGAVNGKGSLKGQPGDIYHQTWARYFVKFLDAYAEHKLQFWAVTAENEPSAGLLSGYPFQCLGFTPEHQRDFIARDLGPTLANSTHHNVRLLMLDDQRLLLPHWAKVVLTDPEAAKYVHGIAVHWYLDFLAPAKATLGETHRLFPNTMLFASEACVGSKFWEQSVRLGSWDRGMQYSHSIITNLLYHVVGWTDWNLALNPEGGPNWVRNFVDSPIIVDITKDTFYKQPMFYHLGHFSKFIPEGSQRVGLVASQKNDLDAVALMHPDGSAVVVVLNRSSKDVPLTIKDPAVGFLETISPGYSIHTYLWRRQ
# ASSAY_INFO: activation of GCase in a live cell PFB assay in HELA cells
pEC50: −log10 of the molar value.
PROPERTY: pEC50

| COMPOUND | EXPERIMENTAL_VALUE |
| --- | --- |
| O=C(c1ccc2cc[nH]c2c1)N1CCC(COc2ccccc2)CC1 | 4.30 to 5.00 |
| CCOc1ccccc1C(=O)N1CCC(Oc2ccc(C(F)(F)F)cn2)CC1 | 4.30 to 5.00 |
| FC(F)Cn1ncc2ncc(N3CCC(COc4ccnc(C(F)(F)F)c4)CC3)nc21 | > 5.00 |
| N#Cc1cccnc1OC1CCN(C(=O)C23CC4CC(CC(C4)C2)C3)CC1 | 4.30 to 5.00 |
| O=C(c1cnc2c(cnn2-c2ccccc2)n1)N1CCCC(COc2cccnc2C(F)(F)F)C1 (centres unmarked) | 4.30 to 5.00 |
| CC(=O)c1ccc(OCC(=O)N2CCC(OCc3ccccc3)CC2)cc1 | 4.00 to 4.30 |
| CCn1c(-c2nncs2)nc2ncc(N3CCCC(COc4ccccc4C)C3)nc21 (centres unmarked) | < 4.00 |
| COc1ccccc1OCC1CCCN(C(=O)c2c(-c3ccccc3)n(C)c3nccnc23)C1 (centres unmarked) | 4.30 to 5.00 |
| Cn1c(-c2ccc(F)cc2)nc2nc(C(=O)N3CCCC(COc4cccnc4C(F)(F)F)C3)cnc21 (centres unmarked) | < 4.00 |
| O=C(c1ccc2ccn(C3COC3)c2c1)N1CCC[C@H](CCc2ccccc2C(F)(F)F)C1 | 4.30 to 5.00 |
| c1ccc(COC2CCN(c3cnc4ccccc4n3)CC2)cc1 | 4.30 to 5.00 |
| FC(F)(F)c1cccc(OCC2CN(c3cncc(-c4nncs4)n3)CCC2(F)F)n1 (centres unmarked) | 4.30 to 5.00 |
| O=C(N1CCC(Oc2ccccc2)CC1)C1(c2ccccc2)CCCC1 | 4.30 to 5.00 |
| C[C@@H]1CC[C@H](COc2cccnc2C(F)(F)F)CN1c1cnc2cnn(CC(F)F)c2n1 | > 5.00 |
| Cc1cccnc1OCC1CCN(C(=O)C2(c3ccccc3)CCOCC2)CC1 | 4.30 to 5.00 |
| C[C@H]1C[C@@H](COc2cccnc2C(F)(F)F)CN(c2cnc3cnn(CC(F)F)c3n2)C1 | > 5.00 |
| C[C@@H]1CC[C@H](COc2ccnc(C(F)(F)F)c2)CN1c1cnc2cnn(CC(F)F)c2n1 | 4.30 to 5.00 |
